Can you tell me MDA-MB-435 IC50 for the items I'm about to list?
- Test system: MDA-MB-435 (human breast cancer cells)
- Procedure Text: MTT in vitro anti-tumor activity test, MDA-MB-435
- Type: cell-based
- Settings: MTT assay, 72 h incubation, MDA-MB-435 cells
Answers are plain numbers, in µg/mL.

{"columns": ["Structure Smiles String", "MDA-MB-435 IC50 / µg/mL"],
 "data": [
  ["CN(C)CCCn1c(=O)c2c(c3ccccc31)C(=O)c1cc(Cl)ccc1-2", 1.52],
  ["O=C1c2cc(Cl)ccc2-c2c1c1ccccc1n(CCN1CCCC1)c2=O", 41.01],
  ["COc1ccc2c(c1)C(=O)c1c-2c(=O)n(CCN2CCOCC2)c2cc(OC)c(OC)cc12", 7.86],
  ["COc1ccc2c(c1)C(=O)c1c-2c(=O)n(CCCN(C)C)c2cc(OC)c(OC)cc12", 0.267],
  ["COc1ccc2c(c1)-c1c(c3cc(OC)ccc3n(CCN(C)C)c1=O)C2=O", 3.12]
]}

Answer for every listed entry: what is its MDA-MB-435 IC50? The entries follow.
1. CCN(CC)CCn1c(=O)c2c(c3ccccc31)C(=O)c1cc(Cl)ccc1-2
2. COc1cc2c3c(c(=O)n(CCN(C)C)c2cc1OC)-c1ccc(Cl)cc1C3=O
3. COc1cc2c3c(c(=O)n(CCn4ccnc4)c2cc1OC)-c1ccc(Cl)cc1C3=O
4. COc1ccc2c(c1)C(=O)c1c-2c(=O)n(CCN2CCCC2)c2cc(OC)c(OC)cc12
5. CN(C)CCn1c(=O)c2c(c3ccccc31)C(=O)c1cc(Cl)ccc1-2

Result:
1: 28.86; 2: 5.30; 3: 12.36; 4: 0.014; 5: 3.88

Answer for every listed entry: what is its MDA-MB-435 IC50? The entries follow.
1. COc1ccc2c(c1)c1c(c(=O)n2CCn2ccnc2)-c2ccc(Br)cc2C1=O
2. COc1ccc2c(c1)C(=O)c1c-2c(=O)n(CCCN(C)C)c2ccccc12
3. COc1ccc2c(c1)C(=O)c1c-2c(=O)n(CCN2CCCC2)c2ccccc12
4. O=C1c2cc(Cl)ccc2-c2c1c1ccccc1n(CCn1ccnc1)c2=O
5. COc1ccc2c(c1)C(=O)c1c-2c(=O)n(CCN(C)C)c2ccc(OC)cc12
6. COc1cc2c3c(c(=O)n(CCCN(C)C)c2cc1OC)-c1ccc(Cl)cc1C3=O

Result:
83.60
19.78
10.73
9.37
0.703
1.12

----------
- System: HepG2 (human hepatoma cells)
- Procedure Text: MTT in vitro anti-tumor activity test, HepG2
- Assay type: cell-based
- Settings: HepG2, 100 μg/mL, MTT, 72 h
Measured Attribute: HepG2 100 μg/mL IC % (%)
Numbers only, in %.

Solved entries:
{"columns": ["Compound", "Readout Unit", "HepG2 100 μg/mL IC %"],
 "data": [
  ["COc1ccc2c(c1)C(=O)c1c-2c(OCCCN(C)C)nc2ccccc12 [Compound 6]", "%", 98.33],
  ["COc1cc2nc(OCCn3ccnc3)c3c(c2cc1OC)C(=O)c1cc(Cl)ccc1-3 [Compound 27]", "%", 57.51],
  ["COc1ccc2c(c1)C(=O)c1c-2c(OCCCN(C)C)nc2cc(OC)c(OC)cc12 [Compound 25]", "%", 89.70],
  ["COc1cc2nc(OCCN(C)C)c3c(c2cc1OC)C(=O)c1cc(Cl)ccc1-3 [Compound 26]", "%", 97.91],
  ["COc1ccc2c(c1)C(=O)c1c-2c(OCCN2CCCCC2)nc2cc(OC)c(OC)cc12 [Compound 24]", "%", 98.55]
]}

Answer for every listed entry: what is its HepG2 100 μg/mL IC %? The entries follow.
1. COc1ccc2c(c1)C(=O)c1c-2c(OCCN2CCOCC2)nc2ccccc12 [Compound 5]
2. CN(C)CCCOc1nc2ccccc2c2c1-c1ccc(Cl)cc1C2=O [Compound 12]
3. COc1ccc2c(c1)C(=O)c1c-2c(OCCCN(C)C)nc2ccc(OC)cc12 [Compound 16]
4. COc1ccc2c(c1)C(=O)c1c-2c(OCCn2ccnc2)nc2ccccc12 [Compound 4]
5. O=C1c2cc(Cl)ccc2-c2c(OCCn3ccnc3)nc3ccccc3c21 [Compound 10]
6. COc1ccc2c(c1)C(=O)c1c-2c(OCCBr)nc2ccccc12 [Compound 30]
7. COc1ccc2c(c1)-c1c(OCCN(C)C)nc3ccc(OC)cc3c1C2=O [Compound 17]
8. CN(C)CCOc1nc2ccccc2c2c1-c1ccc(Cl)cc1C2=O [Compound 7]

Result:
[13.97, 100, 100, 34.87, 92.06, 0, 100, 100]

----------
- Tested on: HepG2 (human hepatoma cells)
- Procedure Text: MTT in vitro anti-tumor activity test, HepG2
- Assay type: cell-based
- Settings: HepG2, 100 μg/mL, MTT, 72 h
Measured Attribute: HepG2 100 μg/mL IC % (%)
One number for each entry, in %.

Solved entries:
{"columns": ["Structure Smiles String", "Target System", "Readout Unit", "Test Value"],
 "data": [
  ["CCN(CC)CCOc1nc2ccccc2c2c1-c1ccc(OC)cc1C2=O", "HepG2 (human hepatoma cells)", "%", 100],
  ["COc1cc2nc(OCCCN(C)C)c3c(c2cc1OC)C(=O)c1cc(Cl)ccc1-3", "HepG2 (human hepatoma cells)", "%", 91.20],
  ["O=C1c2cc(Cl)ccc2-c2c(OCCN3CCCCC3)nc3ccccc3c21", "HepG2 (human hepatoma cells)", "%", 63.27],
  ["O=C1c2cc(Cl)ccc2-c2c(OCCN3CCCC3)nc3ccccc3c21", "HepG2 (human hepatoma cells)", "%", 82.92],
  ["COc1ccc2c(c1)C(=O)c1c-2c(OCCN2CCCC2)nc2cc(OC)c(OC)cc12", "HepG2 (human hepatoma cells)", "%", 81.69],
  ["COc1ccc2c(c1)C(=O)c1c-2c(OCCN(C)C)nc2ccc(OC)cc12", "HepG2 (human hepatoma cells)", "%", 100],
  ["COc1ccc2c(c1)C(=O)c1c-2c(OCCN2CCCCC2)nc2ccc(OC)cc12", "HepG2 (human hepatoma cells)", "%", 100],
  ["COc1ccc2c(c1)C(=O)c1c-2c(OCCN(C)C)nc2cc(OC)c(OC)cc12", "HepG2 (human hepatoma cells)", "%", 99.17]
]}

Now let's try a different one.
Request: Kindly indicate its recorded HepG2 100 μg/mL IC %. Item: "COc1ccc2c(c1)C(=O)c1c-2c(OCCN2CCCC2)nc2ccccc12"
Result: 80.79

----------
- Test system: MDA-MB-435 (human breast cancer cells)
- Procedure Text: MTT in vitro anti-tumor activity test, MDA-MB-435
- Format: cell-based
- Settings: MDA-MB-435 human breast cancer cells, MTT, 72 h
Entries whose MDA-MB-435 IC50 is below 5 µg/mL take YES; entries at or above 5 µg/mL take NO.

Worked examples, 5 compounds total:
{"columns": ["Structure Smiles String", "Discrete Label"],
 "data": [
  ["CN(C)CCCOc1nc2ccccc2c2c1-c1ccc(Cl)cc1C2=O", "YES"],
  ["COc1ccc2nc(OCCn3ccnc3)c3c(c2c1)C(=O)c1cc(Br)ccc1-3", "NO"],
  ["COc1ccc2c(c1)C(=O)c1c-2c(OCCBr)nc2ccccc12", "NO"],
  ["COc1ccc2c(c1)C(=O)c1c-2c(OCCCN(C)C)nc2ccc(OC)cc12", "YES"],
  ["CCN(CC)CCOc1nc2ccc(OC)cc2c2c1-c1ccc(OC)cc1C2=O", "YES"]
]}

API: the following record is the query input.
Request: Lab note: confirm whether the reported MDA-MB-435 IC50 for this compound is below 5 µg/mL, equality not counting. compound: "COc1cc2nc(OCCN(C)C)c3c(c2cc1OC)C(=O)c1cc(Cl)ccc1-3"
Result: NO

----------
- Tested on: Colo205 (human colon cancer cells)
- Procedure Text: MTT in vitro anti-tumor activity test, Colo205
- Assay type: cell-based
- Settings: MTT assay, 72 h incubation, Colo205 cells
Measured Attribute: Colo205 IC50 (µg/mL)
One number for each entry, in µg/mL.

Solved entries:
{"columns": ["Structure Smiles String", "Colo205 IC50 (µg/mL)"],
 "data": [
  ["CCN(CC)CCn1c(=O)c2c(c3ccccc31)C(=O)c1cc(Cl)ccc1-2", 28.58],
  ["COc1ccc2c(c1)c1c(c(=O)n2CCn2ccnc2)-c2ccc(Br)cc2C1=O", 34.21],
  ["COc1cc2c3c(c(=O)n(CCN4CCOCC4)c2cc1OC)-c1ccc(Cl)cc1C3=O", 69.03],
  ["COc1ccc2c(c1)C(=O)c1c-2c(=O)n(CCCN(C)C)c2cc(OC)c(OC)cc12", 22.18],
  ["COc1ccc2c(c1)-c1c(c3cc(OC)ccc3n(CCN(C)C)c1=O)C2=O", 1.27]
]}

Answer for every listed entry: what is its Colo205 IC50? The entries follow.
1. COc1ccc2c(c1)C(=O)c1c-2c(=O)n(CCN2CCCC2)c2ccccc12
2. COc1cc2c3c(c(=O)n(CCN(C)C)c2cc1OC)-c1ccc(Cl)cc1C3=O
3. O=C1c2cc(Cl)ccc2-c2c1c1ccccc1n(CCn1ccnc1)c2=O
4. COc1ccc2c(c1)C(=O)c1c-2c(=O)n(CCN(C)C)c2ccc(OC)cc12
5. COc1ccc2c(c1)C(=O)c1c-2c(=O)n(CCN2CCCC2)c2cc(OC)c(OC)cc12

Result:
1: 7.45; 2: 1.66; 3: 18.77; 4: 0.632; 5: 0.346

The reported numbers originate from patent US9181193B2.
